Target or system UniProt:P08684; recorded quantity IC50.
Sequence (P08684 whole entry): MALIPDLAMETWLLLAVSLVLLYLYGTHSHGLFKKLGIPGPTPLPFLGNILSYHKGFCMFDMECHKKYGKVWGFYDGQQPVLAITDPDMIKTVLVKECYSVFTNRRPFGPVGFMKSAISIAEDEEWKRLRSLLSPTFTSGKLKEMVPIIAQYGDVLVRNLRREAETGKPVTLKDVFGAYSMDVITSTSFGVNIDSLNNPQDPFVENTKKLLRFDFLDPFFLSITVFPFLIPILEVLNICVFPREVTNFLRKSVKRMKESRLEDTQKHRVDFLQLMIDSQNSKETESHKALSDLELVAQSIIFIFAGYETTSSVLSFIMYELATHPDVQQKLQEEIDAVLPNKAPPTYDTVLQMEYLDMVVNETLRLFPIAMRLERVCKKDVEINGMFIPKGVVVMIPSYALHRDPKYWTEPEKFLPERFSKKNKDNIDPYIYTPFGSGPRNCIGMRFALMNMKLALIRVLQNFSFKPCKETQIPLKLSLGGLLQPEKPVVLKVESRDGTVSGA
Lab book: enter the figure in µM, no units written.

For O[C@]1(c2ccc(F)c(F)c2)CCNC[C@@H]1c1cc(-c2c(Cl)cccc2Cl)no1 , what is its reported IC50?
8

Further, for O[C@]1(c2ccc(F)c(F)c2)CCNC[C@@H]1c1cc(-c2ccc(F)cc2Cl)no1 ?
7

What do you have for COC[C@H](C)COCc1ccc([C@@]2(O)CCNC[C@@H]2c2noc(-c3ccccc3CCNC(C)=O)c2Br)cc1 ?
29

Also need CC(=O)NCCc1ccccc1-c1noc([C@H]2CNCC[C@]2(O)c2ccc(F)c(F)c2)c1Br , thanks.
45

What do you have for CC(=O)NCCc1ccccc1-c1onc([C@H]2CNCC[C@]2(O)c2ccc(F)c(F)c2)c1Br ?
33

Reference source for all entries: ChEMBL document CHEMBL2016495
